Test system: Escherichia coli
Test: Antibacterial activity against Escherichia coli ATCC 35218 by broth microdilution method
Format: functional
Reported Endpoint: MIC

# input Fill in: MIC of CC[C@H]1OC(=O)[C@H](C)C(=O)[C@H](C)[C@@H](O[C@@H]2O[C@H](C)C[C@H](N(C)C)[C@H]2O)[C@](C)(OC)C[C@@H](C)C(=O)[C@@](C)(O)[C@H]2OS(=O)O[C@]12C (stereo partly drawn) is ___
# output > 128 µg/mL

# input Try CC[C@H]1OC(=O)[C@H](C)C(=O)[C@H](C)[C@@H](O[C@@H]2O[C@H](C)C[C@H](N(C)C)[C@H]2O)[C@](C)(OC)C[C@@H](C)C(=O)[C@]2(C)O[C@H]2[C@]1(C)O next.
# output > 128 µg/mL

# input Okay, and CC[C@H]1OC(=O)[C@H](C)C(=O)[C@H](C)[C@@H](O[C@@H]2O[C@H](C)C[C@H](N(C)C)[C@H]2O)[C@](C)(OC)C[C@@H](C)C(=O)[C@@](C)(O)[C@H](O)[C@]1(C)O ?
# output > 128 µg/mL
